- Test Description: Toxicity / maximum tolerated dosage in mice
- Format: in vivo
- Measurement Parameters: mouse, in vivo, ip, DMSO vehicle; single QD day 1 ip, BDF1 mice; read-out: Max. tolerated dosage
- Method: In Example N other compounds of the invention were tested against L1210 cells. […] Activity in Table 14-a is tabulated as both increases in life span and as cells surviving treatment and that in table 14-b as T/C.
Test Readout: MTD (mg/kg)
Just the number please, in mg/kg, no unit attached.

Kindly note the recorded MTD for NSc1nc(N)nc2nc[nH]c12 [Compound 2, 2-Aminopurine-6-sulfenamide] , which is 37

###

Answer each item with its documented Max. sol. dosage.
- Test Description: Solubility (maximum solubility)
- Assay type: physicochemical
Please respond with the number in mg/kg and leave the unit unwritten.

Item: Nc1nc([S+](N)[O-])c2ncn([C@@H]3O[C@H](CO)[C@@H](O)[C@@H]3O)c2n1 (stereo partly shown) [Compound 50] | Max. sol. dosage: 800

Short answer for NSc1nc(N)nc2c1ncn2[C@H]1C[C@H](O)[C@@H](CO)O1 [Compound 45] : Max. sol. dosage was 480

Max. sol. dosage recorded for this compound, NS(=O)(=O)c1ncnc2c1ccn2[C@H]1C[C@H](O)[C@@H](CO)O1 [Compound 55] , is 288

Short answer for N[S+]([O-])c1ncnc2c1ncn2[C@H]1C[C@H](O)[C@@H](CO)O1 (stereo partly shown) [Compound 15] : Max. sol. dosage was 800

Data credit: patent US5026836A
